EXPERIMENTAL_SYSTEM: Mitogen-activated protein kinase 10 (Homo sapiens, UniProt P53779)
Sequence (P53779 whole entry): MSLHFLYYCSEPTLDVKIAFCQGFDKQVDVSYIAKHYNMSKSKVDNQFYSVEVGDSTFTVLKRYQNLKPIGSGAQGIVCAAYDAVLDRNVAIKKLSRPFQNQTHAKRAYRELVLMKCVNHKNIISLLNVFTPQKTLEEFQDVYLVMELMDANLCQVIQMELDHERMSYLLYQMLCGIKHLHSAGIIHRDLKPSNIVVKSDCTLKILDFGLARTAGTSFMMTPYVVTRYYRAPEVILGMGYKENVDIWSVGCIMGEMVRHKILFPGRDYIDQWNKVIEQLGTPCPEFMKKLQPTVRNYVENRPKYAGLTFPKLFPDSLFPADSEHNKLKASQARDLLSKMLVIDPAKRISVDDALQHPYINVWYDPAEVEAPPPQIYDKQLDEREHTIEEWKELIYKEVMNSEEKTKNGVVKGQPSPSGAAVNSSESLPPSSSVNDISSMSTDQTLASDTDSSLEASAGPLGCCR
MEASUREMENT_NOTES: Inhibition of JNK3 by TR-FRET assay
pIC50: −log10 of the molar value.
ENDPOINT_NAME: pIC50

Would you please look over these solved cases?
Cc1cc(-c2n[nH]c(=S)n2-c2ccc3ccccc3c2)ccn1; 4.83
c1ccc2cc(-n3ccnc3-c3ccncc3)ccc2c1; 5.72

1. Clc1nnc(-c2ccncc2)n1-c1ccc2ccccc2c1
2. c1ccc2cc(-c3ncncc3-c3ccncc3)ccc2c1
Select the item with the higher value of pIC50 from the options 1 and 2 listed. Kindly state the label of the option you pick.
2

I. Clc1nnn(-c2ccncc2)c1-c1ccc2ccccc2c1
II. S=c1[nH]nc(-c2ccncc2)n1-c1ccc2ncccc2c1
III. c1ccc2cc(-c3cnnn3-c3ccncc3)ccc2c1
IV. c1ccc2cc(-c3[nH]nnc3-c3ccncc3)ccc2c1
V. S=c1[nH]nc(-c2ccnc(NC3CCCCC3)c2)n1-c1ccc2ccccc2c1
Order by pIC50, ascending. Could you list the labels in the order requested?
II, I, III, IV, V
(II: 4.50, I: 4.90, III: 5.32, IV: 6.44, V: 7.28)
